- experimental-target: T1, IL-2 receptor βγ complex (human, UniProt P14784 27-551; P31785 23-369)
- T1 sequence (looked up) 1: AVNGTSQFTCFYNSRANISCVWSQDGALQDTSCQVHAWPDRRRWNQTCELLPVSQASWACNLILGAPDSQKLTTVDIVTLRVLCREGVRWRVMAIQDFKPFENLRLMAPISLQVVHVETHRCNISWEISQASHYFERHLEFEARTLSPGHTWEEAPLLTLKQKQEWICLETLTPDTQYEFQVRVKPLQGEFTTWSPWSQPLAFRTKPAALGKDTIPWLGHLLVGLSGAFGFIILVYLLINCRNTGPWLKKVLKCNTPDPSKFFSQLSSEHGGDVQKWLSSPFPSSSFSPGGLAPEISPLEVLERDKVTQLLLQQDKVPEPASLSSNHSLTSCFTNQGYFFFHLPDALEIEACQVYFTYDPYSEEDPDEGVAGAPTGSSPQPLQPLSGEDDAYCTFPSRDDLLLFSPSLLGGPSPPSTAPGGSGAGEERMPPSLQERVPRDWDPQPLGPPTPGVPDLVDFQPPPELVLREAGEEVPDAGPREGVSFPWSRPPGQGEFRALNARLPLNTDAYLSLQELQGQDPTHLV
- T1 sequence (looked up) 2: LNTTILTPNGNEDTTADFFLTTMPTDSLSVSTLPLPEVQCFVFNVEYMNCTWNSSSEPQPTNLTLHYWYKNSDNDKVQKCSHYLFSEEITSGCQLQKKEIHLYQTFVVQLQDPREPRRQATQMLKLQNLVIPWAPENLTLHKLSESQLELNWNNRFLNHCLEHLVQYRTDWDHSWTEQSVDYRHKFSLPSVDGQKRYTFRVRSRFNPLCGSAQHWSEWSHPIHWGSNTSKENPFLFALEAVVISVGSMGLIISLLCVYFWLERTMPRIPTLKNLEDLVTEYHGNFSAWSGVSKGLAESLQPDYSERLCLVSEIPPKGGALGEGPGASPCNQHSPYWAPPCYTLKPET
- assay-protocol: cell-based or functional assay
Bridges are numbered along the chain shown (N, C = ends). Primed or numbered codes have the meaning given here. [ ]: non-standard residue; d: D form. 8x polyethylene glycol‑amino = O-(8x polyethylene glycol-amino)-tyrosine, SITE 45; 9x polyethylene glycol‑azido = O-(9x polyethylene glycol-azido)-tyrosine, SITE 42; Ygp(4) = Tyr with amino-capped PEG8 (O-(8x polyethylene glycol-amino)-tyrosine); Yn3(4) = Tyr with azide-capped PEG9 (O-(9x polyethylene glycol-azido)-tyrosine); Ygp = O-(8x polyethylene glycol-amino)-tyrosine (Tyr, amino-capped PEG8); Yn3 = O-(9x polyethylene glycol-azido)-tyrosine (Tyr, azide-capped PEG9); Ygp″ = O-(8x polyethylene glycol-amino)-tyrosine; Yn3″ = O-(9x polyethylene glycol-azido)-tyrosine; hSer = N[C@@H](CCO)C(=O)O; Nle = CCCC[C@H](N)C(=O)O
attribute-measured: Average EC50, pSTAT5 Assay in NK cells (nM)
Answer with a number only, understood to be in nM.

Input CMP-329, uPa cleaved molecule (ligand, not fully specified; also: K9 and E23 side chains attached to another sequence, uPa-cleaved product, remnants not given here) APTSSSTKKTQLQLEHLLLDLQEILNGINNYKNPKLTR[Nle]L[hSer]Y(9x polyethylene glycol‑azido)KFY(8x polyethylene glycol‑amino)[Nle]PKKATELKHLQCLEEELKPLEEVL[hSer]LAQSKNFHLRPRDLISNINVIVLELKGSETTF[hSer]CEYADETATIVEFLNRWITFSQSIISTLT . Output Average EC50, pSTAT5 Assay in NK cells: 18.1

Input CMP-168 (ligand, bridge 9-23; not fully specified (bridges); ends not checked; also: sequence of the cleavable bridging peptide not given here) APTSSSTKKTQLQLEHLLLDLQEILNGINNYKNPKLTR[Nle]L[hSer][Yn3(4)]KF[Ygp(4)][Nle]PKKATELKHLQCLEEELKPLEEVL[hSer]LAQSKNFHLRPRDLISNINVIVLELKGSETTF[hSer]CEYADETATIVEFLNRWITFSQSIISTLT . Output Average EC50, pSTAT5 Assay in NK cells: 53.9

Input CMP-314, Matriptase cleaved molecule (ligand, also: matriptase cleavage product, not given here as a sequence, Lys23 side-chain attachment remnant unknown) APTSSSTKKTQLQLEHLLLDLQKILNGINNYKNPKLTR[Nle]L[hSer]Y(9x polyethylene glycol‑azido)KFY(8x polyethylene glycol‑amino)[Nle]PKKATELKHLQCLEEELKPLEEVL[hSer]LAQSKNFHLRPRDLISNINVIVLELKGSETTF[hSer]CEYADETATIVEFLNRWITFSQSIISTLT . Output Average EC50, pSTAT5 Assay in NK cells: 0.117

Input CMP-328, Matriptase cleaved molecule (ligand, ends and bridges not checked; also: after matriptase cleavage, remnants of the Lys9–Glu23 peptide linker not given here) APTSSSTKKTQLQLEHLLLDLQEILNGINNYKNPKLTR[Nle]L[hSer][Yn3″]KF[Ygp″][Nle]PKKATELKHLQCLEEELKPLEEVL[hSer]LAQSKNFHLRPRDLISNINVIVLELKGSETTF[hSer]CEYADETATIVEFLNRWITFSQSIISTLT . Output Average EC50, pSTAT5 Assay in NK cells: 4.28

Input CMP-319 (ligand, lactam N-33; ends not checked) RGRRVANLVGAPTSSSTKKTQLQLEHLLLDLQEILNGINNYKNPKLTR[Nle]L[hSer][Yn3]KF[Ygp][Nle]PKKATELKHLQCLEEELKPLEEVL[hSer]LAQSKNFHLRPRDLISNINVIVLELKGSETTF[hSer]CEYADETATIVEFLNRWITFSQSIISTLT . Output Average EC50, pSTAT5 Assay in NK cells: 7.72
